test: growth suppression of PTEN-deleted HCT116, pilot screen, cell-based, HCT116 clonal line, CellTiter-Glo (AID 824); details: 60 h, at 10 µM, hits give low values
Inconclusive results are not listed.
Could you please mark condition met for values of viability below 90% and condition not met for values at or above it?

[
  {
    "compound": "Cc1cc(C)c(NC(=O)CSc2nnc(-c3ccncc3)n2Cc2ccco2)c(Cl)c1",
    "group_label": "condition not met"
  },
  {
    "compound": "Fc1ccc(-n2[nH]nnc2=S)cc1N1CCCC1",
    "group_label": "condition not met"
  },
  {
    "compound": "CC(=O)Nc1ccc(S(=O)(=O)N2CCN(c3ccc(C)c(Cl)c3)CC2)cc1",
    "group_label": "condition met"
  },
  {
    "compound": "O=C(O)c1ccc(NS(=O)(=O)c2ccc3c(c2)OCCO3)cc1",
    "group_label": "condition not met"
  },
  {
    "compound": "O=C(NCc1ccc(Cl)c(Cl)c1)c1ccco1",
    "group_label": "condition met"
  },
  {
    "compound": "COC(=O)COC(=O)CC(CC(N)=O)c1ccccc1 (stereo unspecified)",
    "group_label": "condition not met"
  }
]

Criterion: viability strictly below 90%. Is it met by COc1ccc(C2C3=C(CC(C)(C)CC3=O)Nc3c2c(=O)[nH]c(=O)n3Cc2ccccc2)cc1 (stereo unspecified) ? condition met

Criterion: viability strictly below 90%. Is it met by Cc1sc2nc(SCC(=O)NCc3ccco3)n(C)c(=O)c2c1C ? condition not met

Criterion: viability strictly below 90%. Is it met by COc1cc(NC(=O)C2CCCC2)c(OC)cc1Cl ? condition met

Criterion: viability strictly below 90%. Is it met by O=C(Nc1ccc2c(c1)OCO2)C(c1ccccc1)N1CCCCC1 (stereo unspecified) ? condition not met

###

experiment: growth suppression of PTEN-deleted HCT116, pilot screen, cell-based, HCT116 clonal line, CellTiter-Glo (AID 824); settings: 60 h, at 10 µM, hits give low values
Records with an inconclusive call do not appear.
Could you please mark YES for values of viability below 90% and NO for values at or above it?

Below are worked cases with known answers.
[
  {
    "molecule": "Cc1ccc(-n2c(=O)[nH]cc(C(=O)Nc3ccc4c(c3)OCO4)c2=O)cc1C",
    "group_label": "NO"
  },
  {
    "molecule": "C=C1c2cc(CC)ccc2NC(=O)N1c1ccc(C)cc1",
    "group_label": "NO"
  },
  {
    "molecule": "COc1cc(C(=O)N2CCN(C(=O)c3ccco3)CC2)cc(OC)c1OC",
    "group_label": "NO"
  },
  {
    "molecule": "O=C1Nc2ccccc2C(O)(C(=O)NCc2ccco2)N1c1ccc(Cl)cc1 (stereo not given)",
    "group_label": "NO"
  },
  {
    "molecule": "O=C(CN1C(=O)c2ccccc2C1=O)Nc1cccc2cccnc12",
    "group_label": "NO"
  }
]

Criterion: viability strictly below 90%. Is it met by CCN1C(=O)c2cccc3c(NC(=O)c4ccc(S(=O)(=O)N5CCOCC5)cc4)ccc1c23 ? YES

Criterion: viability strictly below 90%. Is it met by COc1cc(NC(=O)C2CCC(CNc3c(N4CCCCC4)c(=O)c3=O)CC2)cc(OC)c1 (stereo not given) ? NO

Criterion: viability strictly below 90%. Is it met by Cc1ccc(-n2c3c(cc(C(=O)NCc4ccco4)c2=O)C(=O)CC(C)(C)C3)cc1 ? YES

Criterion: viability strictly below 90%. Is it met by CCOc1ccc(NC(=O)N(C2CCCCC2)C2CCN(C(C)=O)CC2)cc1 ? NO

This collection of values is drawn from PubChem BioAssay.
